Provenance of the data: patent US11149037B2

Each item that follows carries a reported inhibition at 1 µM.
- assayed system: UniProt O00519
- Sequence (O00519 whole entry): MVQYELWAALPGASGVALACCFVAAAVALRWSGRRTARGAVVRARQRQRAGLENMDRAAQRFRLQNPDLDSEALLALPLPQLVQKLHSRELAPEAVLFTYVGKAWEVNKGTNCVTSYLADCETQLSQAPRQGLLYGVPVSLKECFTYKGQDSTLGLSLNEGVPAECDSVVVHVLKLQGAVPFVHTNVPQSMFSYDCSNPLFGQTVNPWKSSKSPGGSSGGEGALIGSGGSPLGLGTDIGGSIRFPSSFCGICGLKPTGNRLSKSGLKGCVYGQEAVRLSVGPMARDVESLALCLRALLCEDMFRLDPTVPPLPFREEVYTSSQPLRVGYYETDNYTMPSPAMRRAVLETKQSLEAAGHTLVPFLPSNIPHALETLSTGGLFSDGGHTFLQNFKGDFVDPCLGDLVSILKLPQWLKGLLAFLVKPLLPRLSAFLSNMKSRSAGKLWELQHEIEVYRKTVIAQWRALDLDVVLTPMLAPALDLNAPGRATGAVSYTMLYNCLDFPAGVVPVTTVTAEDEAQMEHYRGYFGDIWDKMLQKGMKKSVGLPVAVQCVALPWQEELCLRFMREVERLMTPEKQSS
- protocol: In vitro competitive activity-based protein profiling, human proteomes (prefrontal cortex or PC3 cell membrane fractions)
- Type: biochemical
- condition notes: 1 μM, human proteome; read-out: FAAH % inh. 1 μM (human)
- Description: In Vitro Competitive Activity-Based Protein Profiling. Proteomes (mouse brain membrane fraction or cell lysates for mouse assays; human prefrontal cortex or PC3 cell membrane fractions for human assays) (50 μL, 1.0 or 2.0 mg/mL total protein concentration) were preincubated with varying concentrations of inhibitors at 37° C. […] Following gel imaging, serine hydrolase activity was determined by measuring fluorescent intensity of gel bands corresponding to MAGL and FAAH using ImageJ 1.43u software.

The following molecules have reported results that may help.
Q. What value of inhibition at 1 µM has been reported for the following molecule? CS(=O)(=O)Nc1ccn(C(=O)N2CCN(Cc3ccc(Cl)c(N4CC5(CCOCC5)C4)c3)CC2)n1 [Example 8]
A. 0 to 25%

Q. What value of inhibition at 1 µM has been reported for the following molecule? CS(=O)(=O)Nc1ccn(C(=O)N2CCN(Cc3ccc(Cl)c(N4CC5CN(C(N)=O)CC5C4)c3)CC2)n1 (stereo not shown) [Example 9]
A. 0 to 25%

Q. What value of inhibition at 1 µM has been reported for the following molecule? CS(=O)(=O)Nc1ccn(C(=O)N2CCC(Oc3ccc(C(F)(F)F)cc3NCC(=O)O)CC2)n1 [Example 99]
A. 0 to 25%

Q. What value of inhibition at 1 µM has been reported for the following molecule? CS(=O)(=O)Nc1ccn(C(=O)N2C[C@H]3C[C@H](OCc4cccc(C(F)(F)F)c4)C[C@H]3C2)n1 [Example 28]
A. > 75%

Q. What value of inhibition at 1 µM has been reported for the following molecule? CC(=O)Nc1ccn(C(=O)N2CCN(Cc3cccc(C(F)(F)F)c3C)CC2)n1 [Example 129]
A. 0 to 25%

---
Q. What value of inhibition at 1 µM has been reported for the following molecule? CC(=O)Nc1ccn(C(=O)N2CCC3(CCCN3Cc3ccc(C(F)(F)F)cc3NCCCC(=O)O)CC2)n1 [Example 79]
A. 0 to 25%

Q. What value of inhibition at 1 µM has been reported for the following molecule? CS(=O)(=O)Nc1ccn(C(=O)N2CCN(Cc3nc4ccccc4s3)CC2)n1 [Example 56]
A. 0 to 25%
